Hello, the source for this data is the supplement of paper PMC10567573, in case you need it.

B1: ZNF8 (parent)
chain: RTHTGEKPYTCSVCGKSFSRTTCL

- Variants of: B1
- protocol_summary: protein stability index of a GFP-peptide fusion (GPS, HEK-293T) (PSI 1-6); higher = more stable;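 further: lentivirally expressed fusions sorted by FACS into six bins by GFP to DsRed ratio, PSI derived from sequencing read proportions per bin multiplied by bin number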
- measurement_parameters: c terminus: a fixed tail appended
Classification field: Y = protein stability index at or over 3; N = protein stability index under 3.

Illustrative cases are given below, each with its answer.
# mutant_label, category_label
rows = [
    ("T2K", "N"),
    ("F18G", "N"),
    ("P8S", "N"),
    ("T21G", "Y"),
    ("S19H", "N"),
]

Below: the item to evaluate.
Reported protein stability index at or above 3? K7A
N
